B1: KLHDC10 (parent)
chain: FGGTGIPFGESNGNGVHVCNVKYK

variants of: B1; experiment: protein stability index of a GFP-peptide fusion (GPS, HEK-293T) (PSI 1-6); higher = more stable; conditions: c terminus: a fixed tail appended;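 further: lentivirally expressed fusions sorted by FACS into six bins by GFP to DsRed ratio, PSI derived from sequencing read proportions per bin multiplied by bin number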
metric_name: protein stability index
Reply: number alone, nothing else.

Ask: Requested read-out: protein stability index. Entry: "V21W"
Result: 1.86

Ask: Another: "G13F"
Result: 1.9

Ask: Now this one: "I6D"
Result: 3.29

Ask: Continue with "H17T"
Result: 2.22

Ask: Please do the same for "H17G" as well.
Result: 1.63

Ask: Same for "S11K"
Result: 1.87

Ask: Now consider "N20C" and answer again.
Result: 1.11

Ask: What about this variant? "G2P"
Result: 1.83

Ask: Would you mind doing "K22A" as well?
Result: 2.53

Ask: Next variant up: "G2T"
Result: 1.97

Ask: Please give the result for "G5P" too.
Result: 1.86

Ask: Now try "G15W" .
Result: 1.62

Ask: "F8G" ?
Result: 3.58

Ask: Field entry: "F1T"
Result: 3.98

Ask: Same lookup for "G2M" , please.
Result: 2.7

Ask: Similarly, "N20M" ?
Result: 1.38

Ask: Same read-out for "I6F" ?
Result: 2.3

Ask: Queued: "N20F"
Result: 2.06

Ask: For "G13A" then?
Result: 2.02

Ask: How about "N14V" ?
Result: 2.67

Ask: Field entry: "N14I"
Result: 1.2

Ask: Could you do the same for "H17L" , please?
Result: 2.08
